From: ChEMBL document CHEMBL4513216

test: Toxicity liver stage against HepG2, at 10uM; type: cell-based; parameters: test concentration 10 uM, cell line HepG2-A16-CD81EGFP; conditions: human, HepG2-A16-CD81EGFP cells; read-out: INHIBITION
VALUE KIND: cytotoxicity at 10 µM (%)

COMPOUND | VALUE KIND | UNIT SYMBOL | MEAS VALUE
Cc1noc(C)c1CN1CCCC1C(=O)OCc1ccccc1 (stereo not drawn) | cytotoxicity at 10 µM | % | 3.23
CCCc1cc(C(=O)N2CCCC(n3ccnc3C)C2)[nH]n1 (stereo not drawn) | cytotoxicity at 10 µM | % | -15.6
COc1cc(C(=O)N2C[C@@H]3CC[C@H]2CN(Cc2cscn2)C3)ccn1 | cytotoxicity at 10 µM | % | 3.2
Cc1nn(C)cc1S(=O)(=O)N(C)[C@@H]1CCC[C@@H](n2ccnc2)[C@@H]1O | cytotoxicity at 10 µM | % | -2.78
COc1ccc(CNC2CCC3(CCC(=O)N3)CC2)cc1 (stereo not drawn) | cytotoxicity at 10 µM | % | 3.59
CC(C)CN(C(=O)Nc1cccc(C(=O)N(C)C)c1)C1CC1 | cytotoxicity at 10 µM | % | -15.2
Cc1ccc(-n2nnc(C(=O)O)c2C)c(C)c1 | cytotoxicity at 10 µM | % | -0.185
COC(C)(CNS(=O)(=O)c1cccnc1)c1ccccc1F (stereo not drawn) | cytotoxicity at 10 µM | % | -0.403
O=C(NCCCO)Nc1cccc(C[S+]([O-])c2ccccc2)c1 (stereo not drawn) | cytotoxicity at 10 µM | % | 0.0964
CCNC(=O)CN1CCN(c2cc(C)nc(-c3ccncc3)n2)CC1 | cytotoxicity at 10 µM | % | 5.63
Cc1cnn(CC2CCCCN2C(=O)Cc2c(C)nn(C)c2C)c1 (stereo not drawn) | cytotoxicity at 10 µM | % | -13
CSCc1ccc(CNCCCN2CCOCC2)o1 | cytotoxicity at 10 µM | % | 5.81
CC1CCCN(C(=O)Nc2cccc(CN3CCOC3=O)c2)C1 (stereo not drawn) | cytotoxicity at 10 µM | % | 18.3
O=C1NCCCCC1NC(=O)C1(c2cccc(C(F)(F)F)c2)CC1 (stereo not drawn) | cytotoxicity at 10 µM | % | -5.67
Cc1ccc(CN2C[C@@H](C(=O)O)[C@H](c3cccnc3)C2)s1 | cytotoxicity at 10 µM | % | 4.17
Cc1nc(CN2C[C@@H]3CN(C(=O)c4ccnnc4)C[C@@H]3C2=O)cs1 | cytotoxicity at 10 µM | % | -7.41
Cc1cccc(N(C)Cc2nc3c(cnn3C)c(=O)[nH]2)c1C | cytotoxicity at 10 µM | % | -9.23
Cc1csc(N(C)C(=O)C2CC(=O)N(CCc3ccccc3)C2)n1 (stereo not drawn) | cytotoxicity at 10 µM | % | -99.4
CC(C)c1ccc(C(C)N2CCCN(C(N)=O)CC2)cc1 (stereo not drawn) | cytotoxicity at 10 µM | % | -4.24
O=C(NCCC1CN(Cc2c[nH]cn2)CCO1)c1ccccc1O (stereo not drawn) | cytotoxicity at 10 µM | % | 0.423
Cc1cnn(CC2CCCCN2C(=O)Cc2ccc(C#N)cc2)c1 (stereo not drawn) | cytotoxicity at 10 µM | % | -7.09
Cc1ccc(-c2nc(C(=O)N(C)C3CCN(C)CC3)cs2)c(C)c1 | cytotoxicity at 10 µM | % | -7.07
Cc1cccn2cc(C(=O)N3CCCN(CC4CC4)C(C(C)C)C3)nc12 (stereo not drawn) | cytotoxicity at 10 µM | % | 1.46

###

assay: Toxicity liver stage against HepG2, at 10uM; format: cell-based; parameters: test concentration 10 uM, cell line HepG2-A16-CD81EGFP; details: human, HepG2-A16-CD81EGFP cells; read-out: INHIBITION
Let's look at some compounds and their measured cytotoxicity at 10 µM.
VALUE KIND: cytotoxicity at 10 µM

COMPOUND | MEAS VALUE
O=C(NCc1cccnc1)[C@H]1CC[C@@H]2[C@@H](CCN2c2ncccn2)O1 | -82.2%
CC1CN(C)c2ccccc2CN1C(=O)c1ccoc1 (stereo unspecified) | -2.84%
CC(C)OCC(=O)N1CCC(c2ncncc2-c2ccnc(N)c2)C1 (stereo unspecified) | -2.44%
CC1CCN(c2nc3ncc4c(c3c(=O)[nH]2)CC(C)(C)CC4=O)CC1 | 3.49%
CCc1cnc(N)nc1NCCN1CCCCC1 | -17.8%
O=C(c1cccnc1O)N1CCOC(Cc2cccc(C(F)(F)F)c2)C1 (stereo unspecified) | 2.26%
COc1ccc(CN(C)Cc2ccnc(C3CCCO3)n2)cc1 (stereo unspecified) | 7.67%
Cn1cc(C2CC(=O)NC23CCN(C(=O)C2CC=CC2)CC3)cn1 (stereo unspecified) | 8.13%
c1cnn(-c2ccc(CCNC3CCN(C4CC4)C3)cc2)c1 (stereo unspecified) | 2.84%
CC(=O)c1cccc(NS(=O)(=O)c2cc(C)c(C(=O)O)s2)c1 | 0.178%
Cc1ncc(CN(C)Cn2nc(-c3ccccc3)oc2=O)s1 | -2.81%

###

experiment: Toxicity liver stage against HepG2, at 10uM; type: cell-based; design: test concentration 10 uM, cell line HepG2-A16-CD81EGFP; settings: human, HepG2-A16-CD81EGFP cells; read-out: INHIBITION
Let's look at some compounds and their measured cytotoxicity at 10 µM.
VALUE KIND: cytotoxicity at 10 µM (%)

COMPOUND | UNIT SYMBOL | MEAS VALUE
CSc1ccc(CCN2CCN([C@H]3CCCC[C@@H]3O)CC2)cc1 | % | -3.38
COc1ccc(F)c(-c2cc(NCCO)nc(N)n2)c1 | % | -1.21
c1cnc(NCC2Cn3nnc(-c4ccsc4)c3CO2)nc1 (configuration not stated) | % | -73.3
O=C1COC2(CCN(Cc3ccncc3)CC2)CN1CC1CC1 | % | -3.84
Cc1cnc(N2CCc3onc(COc4cccnc4)c3C2)nc1 | % | -111
O=C(O)c1ccccc1-n1cnc(CN2CCCCCC2)c1 | % | -8.94
CN(CCc1ccccn1)C(=O)Cn1cc(-c2ccccc2)nn1 | % | 0.788
Cc1occc1C(=O)NCC(=O)N1CCC(COc2ccccc2)CC1 | % | 12.2
CC(C#N)CSc1ccccc1NCC(=O)NC1CCCCC1 (configuration not stated) | % | 9.37
COCCN(Cc1ccncc1)C(=O)C1COc2c(cccc2OC)C1 (configuration not stated) | % | -14.6
CN(C)[C@H]1CCCCN(C(=O)c2cccc(N3CCS(=O)(=O)CC3)c2)C1 | % | 2.45
CC(=O)Nc1ccc(OCc2noc(C(=O)N3CCCCCC3)n2)cc1 | % | -23

###

experiment: Toxicity liver stage against HepG2, at 10uM; type: cell-based; design: test concentration 10 uM, cell line HepG2-A16-CD81EGFP; settings: human, HepG2-A16-CD81EGFP cells; read-out: INHIBITION
Let's look at some compounds and their measured cytotoxicity at 10 µM.
VALUE KIND: cytotoxicity at 10 µM

COMPOUND | VALUE KIND | MEAS VALUE
CCCNC(=O)CNc1ccccc1OCCC(=O)OC | cytotoxicity at 10 µM | 8.95%
Cc1ccc(CN2C[C@H](OCC3CCOCC3)[C@H]3COC[C@H]32)o1 | cytotoxicity at 10 µM | -4.58%
CCNC(=O)N1C[C@@H](NC(C)=O)[C@H](c2ccc(C)o2)C1 | cytotoxicity at 10 µM | -8.82%
Cn1cc(C2CCCN2c2ncnc3[nH]ccc23)cn1 (stereo unspecified) | cytotoxicity at 10 µM | -9.59%
CN1CCN(C(=O)NC2CC2)Cc2cccnc21 | cytotoxicity at 10 µM | -2.96%
OC(COCc1ccccc1)CN1CCC(c2ccn[nH]2)CC1 (stereo unspecified) | cytotoxicity at 10 µM | -13.6%

###

Let's look at some molecules and their measured cytotoxicity at 10 µM.
experiment: Toxicity liver stage against HepG2, at 10uM; format: cell-based; parameters: test concentration 10 uM, cell line HepG2-A16-CD81EGFP; conditions: human, HepG2-A16-CD81EGFP cells; read-out: INHIBITION

MOLECULE | cytotoxicity at 10 µM (%)
CCOC(=O)COc1cccc(NC(=O)C2COCCO2)c1 (stereo unspecified) | 7.01
Cc1ocnc1CNC(=O)Nc1ccc(N2CCOC(C)C2)cc1 (stereo unspecified) | -2.8
COc1cccc2c1ccn2CCC(=O)N1CCC(C(=O)O)CC1 | 7.08
Cc1c[nH]c(CN2CC[C@@]3(O)CCN(C(=O)C4CCCC4)C[C@H]3C2)n1 | 3.11
CCN1CCC(CC(=O)N(C)C(C)c2cncs2)CC1 (stereo unspecified) | 6.05
O=C(NCc1cccs1)C1CN(C(=O)c2cccs2)CC12CCOCC2 (stereo unspecified) | -11.5

###

Let's look at some compounds and their measured cytotoxicity at 10 µM.
assay: Toxicity liver stage against HepG2, at 10uM; type: cell-based; set-up: test concentration 10 uM, cell line HepG2-A16-CD81EGFP; details: human, HepG2-A16-CD81EGFP cells; read-out: INHIBITION

COMPOUND | cytotoxicity at 10 µM / %
CCN1CC(C(=O)N2CCN(c3nsc4ccccc34)CC2)CCC1=O (centres undefined) | 16.2
O=C(NCCCc1ccc(F)cc1)c1ccc(N2CCOCC2)cc1 | -4.45
OC[C@@H]1CCCN1c1ccc(-c2nc(CCc3ccccc3)no2)cn1 | -0.134
Cc1cccnc1[C@H](C)NC(=O)c1cccc(CC2CCNCC2)c1 | -5.22
CCN1CCN(C(=O)NCc2cccnc2-n2cccn2)CC1 | -7.97
Cc1csc(N2CCN(C(=O)c3ccc(C)s3)CC2)n1 | -24.3
O=C(NCCN1CCCCC1)c1ccoc1 | -11.3
COc1ccc(NC(=O)c2cnc(C3CCN(C(C)=O)C3)nc2C)cc1 (centres undefined) | -2.6
CCc1noc(CNc2ccc(C(=O)N3CCCC(C)C3)cc2C)n1 (centres undefined) | -10.8
CCOC(=O)c1ccccc1NC(=O)CN(C)Cc1ccccc1Cl | -5.65
CC(=O)N[C@H]1CCO[C@@H](c2cccc(NC(=O)Cc3ccccc3)c2)C1 | 8.3
Cc1nc(-c2ccccc2)ccc1C(=O)N1CCn2c(C)nnc2C1 | 4.01
CCN(Cc1ccoc1)C(=O)Nc1ccccc1CN(C)C(C)=O | 4.55
Cc1nn(-c2ccccc2)c(C)c1-c1ccnc(N2CCCOCC2)n1 | -11.3
CC(C)Cc1noc(CN(C)c2ncccn2)n1 | 5.23
O=S(=O)(Nc1nccs1)c1cc(Cl)cc2c1OCC2 | -2.19
COCCN1CC(O)CN(C(=O)c2cccc(C(F)(F)F)c2)CC1=O (centres undefined) | -3.84
O=C(CCCOc1ccccc1)N1CCCC1Cn1cccn1 (centres undefined) | -7.83
Cc1ncsc1CCN(C)C(=O)CN1CCOC1=O | -15.3
c1cnc(NCc2noc3c2CN(CCN2CCCC2)CC3)nc1 | -7.36
CCOCC(=O)N1CSCC1C(=O)N(C)Cc1ccco1 (centres undefined) | -11
CC1(C)OC(=O)N(CCOc2ccc(F)cc2)C1=O | -8.68
O=c1c2c[nH]c(N3CCCCC3)nc-2cn1-c1ccc2c(c1)OCO2 | 15
CCN(CC)CCSc1nnc(N2CCN(c3ccccc3)CC2)s1 | -21.9
